- assay system: human PRMT1 (Homo sapiens)
- Construct: GST-tagged PRMT1; made in house; host or cells: High Five insect cells (baculovirus)
- assay explanation: biochemical
- conditions: biochemical evaluation, peptide substrate; read-out: PRMT1 IC50
pIC50: −log10 of the molar value.
Overview of recorded pIC50 for various molecules

[Q] So what does the record say about pIC50 for CNCCN(C)Cc1n[nH]c2ccc(OCC(C)c3ccccc3)cc12 (centres unmarked) ?
[A] > 7.00

[Q] Reported pIC50 for CNCCN(C)Cc1n[nH]c2ccc(OC(C)C)cc12 : what is it?
[A] ≥ 7.00

[Q] // lookup pIC50 for CNCCN(C)Cc1nn(C)c2ccc(OCc3ccc(C#N)cc3)cc12
[A] 6.00 to 7.00

[Q] I am curious: what pIC50 value has been reported for CN(CCN)Cc1n[nH]c2ccc(OCc3ccccc3)cc12 ?
[A] > 7.00

[Q] Could you tell me which pIC50 is on file for CNCCN(C)Cc1n[nH]c2ccc(OCC3CCCCC3)cc12 ?
[A] 6.00 to 7.00

###

- assay system: Human CARM1 (PRMT4) (Homo sapiens)
- Construct: Flag-CARM1-His; made in house; host or cells: HEK 293F cells (BacMam baculovirus)
- Sequence (Q86X55 1-585 isoform Q86X55-1): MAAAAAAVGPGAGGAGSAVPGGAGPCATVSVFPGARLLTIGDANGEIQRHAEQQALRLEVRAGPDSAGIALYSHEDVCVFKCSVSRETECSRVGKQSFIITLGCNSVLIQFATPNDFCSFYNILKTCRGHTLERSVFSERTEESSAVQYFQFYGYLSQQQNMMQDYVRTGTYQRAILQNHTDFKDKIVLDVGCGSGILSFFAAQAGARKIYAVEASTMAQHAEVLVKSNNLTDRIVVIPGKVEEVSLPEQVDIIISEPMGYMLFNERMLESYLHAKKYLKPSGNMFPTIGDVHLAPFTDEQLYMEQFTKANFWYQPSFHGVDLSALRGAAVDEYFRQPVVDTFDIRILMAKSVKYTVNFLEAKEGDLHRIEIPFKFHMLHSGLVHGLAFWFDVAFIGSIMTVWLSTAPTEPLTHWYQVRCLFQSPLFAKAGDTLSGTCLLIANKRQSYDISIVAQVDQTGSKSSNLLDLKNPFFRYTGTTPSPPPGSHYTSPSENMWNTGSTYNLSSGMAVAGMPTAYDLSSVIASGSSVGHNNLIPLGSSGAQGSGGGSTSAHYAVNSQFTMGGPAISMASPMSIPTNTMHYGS
- assay explanation: CARM1 Biochemical Assay
- conditions: PRMT4 IC50, biochemical evaluation, CARM1 (PRMT4), peptide substrate
metric: IC50

Worked cases, answers included:
CNCCN(C)Cc1n[nH]c2ccc(Oc3ccc(C(F)(F)F)cc3)cc12 [Compound 39] | 101 to 1000 nM
CNCCN(C)Cc1n[nH]c2ccc(Oc3ccccc3C(F)(F)F)cc12 [Compound 49] | 3010 to 10000 nM
CNCCN(C)Cc1n[nH]c2ccc(Oc3cccc(OC(C)C)c3)cc12 [Compound 67] | 3010 to 10000 nM
CNCCN(C)Cc1n[nH]c2ccc(Oc3cccc(Cl)c3)cc12 [Compound 27] | 101 to 1000 nM
CNCCN(C)Cc1n[nH]c2ccc(Oc3ccc(Cl)cc3)cc12 [Compound 57] | 101 to 1000 nM
CNCCN(C)Cc1n[nH]c2ccc(OC3CCN(C(C)=O)CC3)cc12 [Compound 58] | 1010 to 3000 nM

[Q] Write down the reported IC50 of CNCCN(C)Cc1n[nH]c2ccc(OCC3CCCCC3)cc12 [Compound 54] , test system: Human CARM1 (PRMT4) (Homo sapiens).
[A] 3010 to 10000 nM

[Q] Hi! What's the reported IC50 for CNCCN(C)Cc1n[nH]c2ccc(N3CCC4(CCCCC4)CC3)cc12 [Compound 43] on Human CARM1 (PRMT4) (Homo sapiens)?
[A] 101 to 1000 nM

[Q] Missing value: IC50, Human CARM1 (PRMT4) (Homo sapiens), entry CNCCN(C)Cc1c2cc(OCc3ccc(C#N)cc3)ccc2nn1C(C)C [Compound 34] . Fill in?
[A] 3010 to 10000 nM

[Q] Observed IC50 on Human CARM1 (PRMT4) (Homo sapiens) for CNCCN(C)Cc1n[nH]c2ccc(OCc3cccc(C(N)=O)c3)cc12 [Compound 66] , please.
[A] 1010 to 3000 nM

###

- assay system: human PRMT8 (Homo sapiens, UniProt Q9NR22)
- Sequence (Q9NR22 whole entry): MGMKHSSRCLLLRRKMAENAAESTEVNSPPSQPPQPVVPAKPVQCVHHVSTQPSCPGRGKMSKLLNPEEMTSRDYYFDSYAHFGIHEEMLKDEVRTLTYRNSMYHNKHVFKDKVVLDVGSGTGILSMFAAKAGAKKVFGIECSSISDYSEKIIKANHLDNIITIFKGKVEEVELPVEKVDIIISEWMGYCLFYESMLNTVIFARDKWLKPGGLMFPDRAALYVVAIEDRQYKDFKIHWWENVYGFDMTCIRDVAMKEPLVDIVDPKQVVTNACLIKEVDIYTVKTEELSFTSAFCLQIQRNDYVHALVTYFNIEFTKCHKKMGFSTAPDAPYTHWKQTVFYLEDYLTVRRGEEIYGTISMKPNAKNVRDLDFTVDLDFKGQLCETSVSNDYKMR
- assay explanation: biochemical
- conditions: biochemical evaluation, peptide substrate; read-out: PRMT8 IC50
pIC50: −log10 of the molar value.
metric: pIC50

Examples with their reported pIC50 follow.
CNCCN(C)Cc1n[nH]c2cccc(OCc3ccccc3)c12 | > 7.00
CNCCN(C)Cc1n[nH]c2ccc(C3CCCCC3)cc12 | ≥ 7.00
CNCCN(C)Cc1n[nH]c2ccc(C(C)C)cc12 | 6.00 to 7.00
CNCCN(C)Cc1n[nH]c2ccc(OCc3ccn(CC(C)C)n3)cc12 | 5.52 to 6.00
CNCCN(C)Cc1n[nH]c2ccc(C3=CCOCC3)cc12 | > 7.00

Please look at the following compound next.
[Q] Record request: pIC50 value, item CNCCN(C)Cc1n[nH]c2ccc(C3=CCCCC3)cc12
[A] ≥ 7.00

###

- assay system: UniProt Q96LA8
- assay explanation: biochemical
- conditions: PRMT6 biochemical evaluation (numerical), single experiment or average of multiple experiments
- Description: General Materials. […] General Procedure for PRMT6 Enzyme Assays on Peptide Substrates. […] The plates were then read in a PerkinElmer TopCount plate reader to measure the quantity of ^3H-labeled peptide bound to the Flashplate surface, measured as disintegrations per minute (dpm) or alternatively, referred to as counts per minute (cpm). […]
metric: pIC50
pIC50 (log units): -log10 of the concentration in mol/L.

CNCCN(C)Cc1n[nH]c2ccc(N3CCC4(CCCCC4)CC3)cc12 | 5.74

Shifting focus to the compound that follows.
[Q] Bench note: what pIC50 did CNCCN(C)Cc1n[nH]c2ccc(Oc3ccc(OC)cc3)cc12 show?
[A] 6.51

###

The entries below are paired with their reported IC50.
- assay system: human PRMT6 (Homo sapiens, UniProt Q96LA8)
- Sequence (Q96LA8 with tags, fused parts or gaps): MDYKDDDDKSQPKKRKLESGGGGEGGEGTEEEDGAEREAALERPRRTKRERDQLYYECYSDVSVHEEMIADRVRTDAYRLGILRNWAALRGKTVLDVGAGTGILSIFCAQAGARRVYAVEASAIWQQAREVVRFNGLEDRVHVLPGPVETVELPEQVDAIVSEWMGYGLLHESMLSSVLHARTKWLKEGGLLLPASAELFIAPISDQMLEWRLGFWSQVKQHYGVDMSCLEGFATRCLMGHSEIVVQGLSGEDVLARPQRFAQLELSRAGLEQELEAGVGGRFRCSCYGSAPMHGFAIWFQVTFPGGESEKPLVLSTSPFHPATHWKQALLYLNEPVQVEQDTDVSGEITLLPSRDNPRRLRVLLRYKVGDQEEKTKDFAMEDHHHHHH
- assay explanation: biochemical
- conditions: single experiment or average of multiple experiments; read-out: PRMT6 biochemical evaluation (numerical)
State the answer as a number, implicitly in nM.

CNCCN(C)Cc1n[nH]c2ccc(Oc3cccc(OC(C)C)c3)cc12 | 56.2
CNCCN(C)Cc1nn(C(C)C)c2ccc(OCc3ccc(C#N)cc3)cc12 | 191
CN(CCN)Cc1n[nH]c2ccc(OCc3ccccc3)cc12 | 9.44
CNCCN(C)Cc1n[nH]c2ccc(OC3CCOC3)cc12 (centres unmarked) | 5.05

With those in mind, consider the next compound.
[Q] Query: IC50; subject: CNCCN(C)Cc1c2cc(OCc3ccc(C#N)cc3)ccc2nn1C1CCOCC1
[A] 2550

###

- assay system: human PRMT1 (Homo sapiens, UniProt Q99873)
- Construct: GST-tagged PRMT1; made in house; host or cells: High Five insect cells (baculovirus)
- Sequence (Q99873 other isoform, or with tags, fused parts or gaps): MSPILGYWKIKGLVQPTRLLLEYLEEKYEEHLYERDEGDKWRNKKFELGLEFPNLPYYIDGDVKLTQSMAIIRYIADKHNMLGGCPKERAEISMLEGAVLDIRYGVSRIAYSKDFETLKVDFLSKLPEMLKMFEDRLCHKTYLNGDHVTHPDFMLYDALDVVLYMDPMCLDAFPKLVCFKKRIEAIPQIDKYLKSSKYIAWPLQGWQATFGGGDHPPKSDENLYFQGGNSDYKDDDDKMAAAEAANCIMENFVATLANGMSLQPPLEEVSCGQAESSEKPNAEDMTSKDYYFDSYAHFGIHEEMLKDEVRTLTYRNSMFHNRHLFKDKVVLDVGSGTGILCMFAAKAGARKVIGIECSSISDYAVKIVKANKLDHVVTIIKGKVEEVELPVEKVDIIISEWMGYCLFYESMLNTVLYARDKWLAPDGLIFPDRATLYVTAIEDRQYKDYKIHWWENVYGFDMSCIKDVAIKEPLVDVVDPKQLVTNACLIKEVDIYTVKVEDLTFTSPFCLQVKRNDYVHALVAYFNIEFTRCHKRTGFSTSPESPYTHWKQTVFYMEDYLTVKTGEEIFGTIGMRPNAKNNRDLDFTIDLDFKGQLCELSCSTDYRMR
- assay explanation: biochemical
- conditions: biochemical evaluation, peptide substrate; read-out: PRMT1 IC50
metric: IC50

Here is how some compounds turned out for IC50.
CNCCN(C)Cc1n[nH]c2ccc(Oc3cccc(OC(C)C)c3)cc12 | < 100 nM
CNCCN(C)Cc1n[nH]c2ccc(C(C)C)cc12 | ≤ 100 nM
CNCCN(C)Cc1n[nH]c2ccc(Oc3ccccc3C)cc12 | < 100 nM
CNCCN(C)Cc1n[nH]c2ccc(OCc3ccc(C(F)(F)F)cc3)cc12 | 101 to 1000 nM
CNCCN(C)Cc1n[nH]c2ccc(OC3CCCCC3)cc12 | < 100 nM

[Q] Fill in: IC50 of CNCCN(C)Cc1n[nH]c2ccc(Oc3ccc(C#N)cc3)cc12 is ___
[A] 1010 to 3000 nM

[Q] Dear colleague, I am looking for the recorded IC50 of the following compound: CNCCN(C)Cc1n[nH]c2ccc(OC3CCOCC3)cc12
[A] < 100 nM

[Q] Requested field: IC50. Item: CNCCN(C)Cc1n[nH]c2ccc(OCCc3ccccc3)cc12
[A] < 100 nM

[Q] I would be grateful if you could share the reported IC50 for CNCCN(C)Cc1n[nH]c2cccc(OCCCC(O)CO)c12 (stereo not shown) .
[A] 101 to 1000 nM

[Q] Any idea what its IC50 is? The compound is CNCCN(C)Cc1n[nH]c2ccc(OCc3ccc(C#N)cc3)cc12
[A] < 100 nM

###

- assay system: human PRMT6 (Homo sapiens, UniProt Q96LA8)
- assay explanation: biochemical
- conditions: biochemical evaluation, peptide substrate; read-out: PRMT6 IC50
pIC50: −log10 of the molar value.
metric: pIC50

CNCCN(C)Cc1n[nH]c2ccc(OCC3CCOCC3)cc12 [Compound 50] | 5.00 to 5.52

[Q] Entry under review: CCOc1ccc2[nH]nc(CN(C)CCNC)c2c1 [Compound 63] . Reported pIC50?
[A] 6.00 to 7.00

[Q] What value of measured pIC50 is listed for CNCCN(C)Cc1nn(C(C)C)c2ccc(OCc3ccc(C#N)cc3)cc12 [Compound 62] ?
[A] 6.00 to 7.00

[Q] I am curious: what pIC50 value has been reported for CNCCN(C)Cc1n[nH]c2ccc(C(C)C)cc12 [Compound 42] ?
[A] > 7.00

[Q] I am curious: what pIC50 value has been reported for CNCCN(C)Cc1n[nH]c2ccc(OCC3CCCC3)cc12 [Compound 52] ?
[A] 5.52 to 6.00

[Q] // lookup pIC50 for CNCCN(C)Cc1n[nH]c2ccc(OC3CCN(C(C)=O)CC3)cc12 [Compound 58]
[A] 6.00 to 7.00

[Q] Looking for the measured pIC50 of CNCCN(C)Cc1n[nH]c2ccc(OC3CCCCC3)cc12 [Compound 18] , can you help?
[A] > 7.00

[Q] Need pIC50 of CNCCN(C)Cc1n[nH]c2cccc(OCCC(O)CO)c12 (stereo not shown) [Compound 40] , thanks.
[A] 5.52 to 6.00
